Test system: Dengue virus (DENV-2), New Guinea C
Test: microbe, parasite or virus in culture
Type: cell-based
Settings: DENV2, Huh-7, 144 h, read-out: EC50 (concentration required to prevent virus-induced CPE by 50%)
property-label: EC50 (nM)
Give the value in nM but do not write nM after it.

Query: For CNc1nc(N)nc2c1ncn2[C@@H]1O[C@H](CO[P@@](=O)(N[C@@H](C)C(=O)OC(C)C)Oc2ccccc2)[C@@H](O)[C@]1(F)Cl [Compound 8] , what is its reported EC50?
Response: 320

###

Tested on: West Nile virus (WN02 Kern 515)
Assay: microbe, parasite or virus in culture
Type: cell-based
Settings: Huh-7, 144 h, read-out: EC50 (concentration required to prevent virus-induced CPE by 50%)
property-label: EC50

Query: Look up EC50 for this compound: CNc1nc(N)nc2c1ncn2[C@@H]1O[C@H](CO[P@@](=O)(N[C@@H](C)C(=O)OC(C)C)Oc2ccccc2)[C@@H](O)[C@]1(F)Cl
Response: 0.32 µM

Numbers sourced from patent US20240226131A1.
